Attribute: pIC50
Molecular target: human FAAH (Homo sapiens)
Construct: expressed in transfected cells; host or cells: H4 cells (H4-FAAH, Geneticin-selected); crude membrane homogenates
Sequence (O00519 whole entry): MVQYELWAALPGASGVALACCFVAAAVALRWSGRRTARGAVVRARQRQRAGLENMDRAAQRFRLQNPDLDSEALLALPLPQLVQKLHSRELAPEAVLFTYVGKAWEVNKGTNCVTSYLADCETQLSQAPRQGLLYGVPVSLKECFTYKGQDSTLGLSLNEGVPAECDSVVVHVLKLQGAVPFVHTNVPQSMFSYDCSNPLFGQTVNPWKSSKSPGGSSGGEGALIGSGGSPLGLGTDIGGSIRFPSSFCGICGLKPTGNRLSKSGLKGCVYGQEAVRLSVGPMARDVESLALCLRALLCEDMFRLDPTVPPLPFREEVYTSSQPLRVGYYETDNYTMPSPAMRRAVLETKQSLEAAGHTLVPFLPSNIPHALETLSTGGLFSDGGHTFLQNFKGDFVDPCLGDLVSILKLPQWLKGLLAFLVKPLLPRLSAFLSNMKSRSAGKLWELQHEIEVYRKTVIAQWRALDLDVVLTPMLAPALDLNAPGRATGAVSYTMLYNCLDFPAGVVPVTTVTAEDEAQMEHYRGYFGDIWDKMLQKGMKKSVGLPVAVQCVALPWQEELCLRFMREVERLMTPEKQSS
Assay: FAAH activity in membrane homogenates of H4-FAAH cells, [3H]-anandamide hydrolysis
Format: biochemical
Settings: H4-FAAH cell membranes, 10 μM anandamide, room temperature, one hour; read-out: IC50
Experimental: Homogenates of crude membranes were prepared from H4 cells that express transfected human FAAH (H4-FAAH cells). […] Activity of FAAH was measured using a modification of the method described by Omeir et al., 1995 (Life Sci 56:1999, 1995). […] An aliquot of the aqueous phase, containing [^3H]-ethanolamine was withdrawn and counted by scintillation spectroscopy. […] IC50 values were determined using a four-parameter logistic equation for dose-response curves.
pIC50: −log10 of the molar value.
MEASURED PROPERTY: pIC50

> print(dat)
                                   molecule  measured.property    meas.value
1  CCCCOc1ccc(NC(=O)Oc2ccc(F)cc2)cc1 [Example 108]              pIC50  6.30 to 7.00
2  CCCCOc1ccc(NC(=O)O/N=C(/C)Cl)cc1 [Example 155]              pIC50        > 8.00
3  O=C(Nc1ccc(Oc2ccccn2)cc1)O/N=C/c1ccccc1 [Example 149]              pIC50  7.00 to 8.00
4  CCCCCCCCCCCOc1ccc(NC(=O)O/N=C/c2ccccc2)cc1 [Example 37]              pIC50        > 8.00
5  CCCCOc1ccc(CNC(=O)O/N=C/c2ccc(F)cc2)cc1 [Example 63]              pIC50  7.00 to 8.00
